assay: Plasma stability in fresh mouse plasma; assay type: in vitro ADME; conditions: 1 uM, 37° C.
I'd appreciate it if you could supply Plasma Stability mouse (1 hour): percent of prodrug metabolized to riluzole values for the items below.
Give the value in % but do not write % after it.

INPUT: Give its Plasma Stability mouse (1 hour): percent of prodrug metabolized to riluzole value. Item: CC(C)[C@H](N)C(=O)Nc1nc2ccc(OC(F)(F)F)cc2s1
OUTPUT: 45

INPUT: Give its Plasma Stability mouse (1 hour): percent of prodrug metabolized to riluzole value. Item: NCCCCC(=O)Nc1nc2ccc(OC(F)(F)F)cc2s1
OUTPUT: 0

INPUT: Give its Plasma Stability mouse (1 hour): percent of prodrug metabolized to riluzole value. Item: Nc1ccc(C(=O)Nc2nc3ccc(OC(F)(F)F)cc3s2)cc1
OUTPUT: 0

INPUT: Give its Plasma Stability mouse (1 hour): percent of prodrug metabolized to riluzole value. Item: COC(=O)CCC(=O)Nc1nc2ccc(OC(F)(F)F)cc2s1
OUTPUT: 99

INPUT: Give its Plasma Stability mouse (1 hour): percent of prodrug metabolized to riluzole value. Item: CC(C)COC(=O)Nc1nc2ccc(OC(F)(F)F)cc2s1
OUTPUT: 0

INPUT: Give its Plasma Stability mouse (1 hour): percent of prodrug metabolized to riluzole value. Item: N[C@H](COCc1ccccc1)C(=O)Nc1nc2ccc(OC(F)(F)F)cc2s1
OUTPUT: 25

INPUT: Give its Plasma Stability mouse (1 hour): percent of prodrug metabolized to riluzole value. Item: CN(C)CCCOC(=O)Nc1nc2ccc(OC(F)(F)F)cc2s1
OUTPUT: 0

INPUT: Give its Plasma Stability mouse (1 hour): percent of prodrug metabolized to riluzole value. Item: N[C@@H](Cc1ccccc1)C(=O)Nc1nc2ccc(OC(F)(F)F)cc2s1
OUTPUT: 0

INPUT: Give its Plasma Stability mouse (1 hour): percent of prodrug metabolized to riluzole value. Item: O=C(CCC(=O)Nc1nc2ccc(OC(F)(F)F)cc2s1)NCc1cccnc1
OUTPUT: 26

INPUT: Give its Plasma Stability mouse (1 hour): percent of prodrug metabolized to riluzole value. Item: NCC(=O)Nc1nc2ccc(OC(F)(F)F)cc2s1
OUTPUT: 11

INPUT: Give its Plasma Stability mouse (1 hour): percent of prodrug metabolized to riluzole value. Item: CNCCCCC(=O)Nc1nc2ccc(OC(F)(F)F)cc2s1
OUTPUT: 0

INPUT: Give its Plasma Stability mouse (1 hour): percent of prodrug metabolized to riluzole value. Item: C[C@@H](N)C(=O)Nc1nc2ccc(OC(F)(F)F)cc2s1
OUTPUT: 36

INPUT: Give its Plasma Stability mouse (1 hour): percent of prodrug metabolized to riluzole value. Item: C[C@H](N)C(=O)Nc1nc2ccc(OC(F)(F)F)cc2s1
OUTPUT: 28

INPUT: Give its Plasma Stability mouse (1 hour): percent of prodrug metabolized to riluzole value. Item: O=C(Cc1ccccc1[N+](=O)[O-])Nc1nc2ccc(OC(F)(F)F)cc2s1
OUTPUT: 0

INPUT: Give its Plasma Stability mouse (1 hour): percent of prodrug metabolized to riluzole value. Item: O=C(O)CCC(=O)Nc1nc2ccc(OC(F)(F)F)cc2s1
OUTPUT: 0

INPUT: Give its Plasma Stability mouse (1 hour): percent of prodrug metabolized to riluzole value. Item: CCCOC(=O)Nc1nc2ccc(OC(F)(F)F)cc2s1
OUTPUT: 0

INPUT: Give its Plasma Stability mouse (1 hour): percent of prodrug metabolized to riluzole value. Item: CCOC(=O)Nc1nc2ccc(OC(F)(F)F)cc2s1
OUTPUT: 0

INPUT: Give its Plasma Stability mouse (1 hour): percent of prodrug metabolized to riluzole value. Item: CN(C)CCOC(=O)Nc1nc2ccc(OC(F)(F)F)cc2s1
OUTPUT: 3

INPUT: Give its Plasma Stability mouse (1 hour): percent of prodrug metabolized to riluzole value. Item: CC(C)(C)OC(=O)CCC(=O)Nc1nc2ccc(OC(F)(F)F)cc2s1
OUTPUT: 0

INPUT: Give its Plasma Stability mouse (1 hour): percent of prodrug metabolized to riluzole value. Item: N[C@H](Cc1ccccc1)C(=O)Nc1nc2ccc(OC(F)(F)F)cc2s1
OUTPUT: 47

INPUT: Give its Plasma Stability mouse (1 hour): percent of prodrug metabolized to riluzole value. Item: N[C@@H](COCc1ccccc1)C(=O)Nc1nc2ccc(OC(F)(F)F)cc2s1
OUTPUT: 52

INPUT: Give its Plasma Stability mouse (1 hour): percent of prodrug metabolized to riluzole value. Item: CCCCOC(=O)Nc1nc2ccc(OC(F)(F)F)cc2s1
OUTPUT: 9

INPUT: Give its Plasma Stability mouse (1 hour): percent of prodrug metabolized to riluzole value. Item: COC(=O)Nc1nc2ccc(OC(F)(F)F)cc2s1
OUTPUT: 0

This collection of values is drawn from patent US12172974B2.
